Taken from the EternaBench riboswitch data.

# apparent Kd annotations
System: MS2 coat protein
test_description: apparent Kd, MS2 coat protein; higher = weaker binding; RNA-MaP array; FMN 200 µM where present
test_conditions: ligand present: flavin mononucleotide; designed as: OFF switch for flavin mononucleotide
A number alone suffices; assume nM.

AUCUGGUCCUUACGCCCACAUGAGGAUCACCCAUGUCAGGCACAGGAUAUCCCGGGAGCUUUGGUGGAGAAGGGUGCCCUUGGG	100

For GAGAAGUCAGGAUAUGCAUGGCGGGACUUGCGUCGUGGCGUGCAGAAGGGACAUGAGGAUCACCCAUGUGGAGU , what is its reported apparent Kd? 235

For UGUGCGUUGAUCUUCGAUCGGAGUACAUGAGGAUCACCCAUGUAGGAUAUUCAAAGACGCAGAUAGGAGAAGGACAUCGGAUUA , what is its reported apparent Kd? 8.83
